B1: PKD2L1 (parent)
chain: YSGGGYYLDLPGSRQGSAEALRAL

Variants of: B1
protocol_details: protein stability index of a GFP-peptide fusion (GPS, HEK-293T) (PSI 1-6); higher = more stable;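 note: lentivirally expressed fusions sorted by FACS into six bins by GFP to DsRed ratio, PSI derived from sequencing read proportions per bin multiplied by bin number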
conditions: c terminus: a fixed tail appended
outcome_measure: protein stability index
API doc: respond with a numeric literal and nothing else, no unit.

# protein stability index (variant: G16T ) is 1.84

# protein stability index (variant: P11E ) is 1.29

# protein stability index (variant: R22K ) is 2.08

# protein stability index (variant: G16C ) is 1.86

# protein stability index (variant: G16I ) is 2.3

# protein stability index (variant: G16V ) is 1.77

# protein stability index (variant: G5W ) is 3.35

# protein stability index (variant: Y6A ) is 2.27

# protein stability index (variant: Y7N ) is 2.59

# protein stability index (variant: S13E ) is 1.61

# protein stability index (variant: D9S ) is 1.83

# protein stability index (variant: D9W ) is 2.87

# protein stability index (variant: Y1A ) is 3.15

# protein stability index (variant: G4W ) is 2.44

# protein stability index (variant: S13D ) is 1.12

# protein stability index (variant: L8K ) is 1.42

# protein stability index (variant: G12E ) is 2

# protein stability index (variant: R22N ) is 1.65

# protein stability index (variant: Y1Q ) is 3.75

# protein stability index (variant: A23Q ) is 2.53

# protein stability index (variant: P11N ) is 1.97

# protein stability index (variant: G3K ) is 2.37

# protein stability index (variant: A18I ) is 1.55

# protein stability index (variant: S17T ) is 2

# protein stability index (variant: R14A ) is 3.28

# protein stability index (variant: G4D ) is 2.86

# protein stability index (variant: Y1S ) is 3.48

# protein stability index (variant: L21G ) is 1.89

# protein stability index (variant: S2K ) is 2.22

# protein stability index (variant: G4K ) is 2.37

# protein stability index (variant: D9T ) is 3.34

# protein stability index (variant: L21E ) is 1.36

# protein stability index (variant: P11H ) is 1.44

# protein stability index (variant: A23D ) is 2.21

# protein stability index (variant: P11T ) is 1.86

# protein stability index (variant: S17K ) is 1.78

# protein stability index (variant: G4H ) is 2.45

# protein stability index (variant: Q15T ) is 1.21

# protein stability index (variant: G5M ) is 2.68

# protein stability index (variant: L10I ) is 2.33

# protein stability index (variant: R14K ) is 2.56

# protein stability index (variant: G4P ) is 2.03

# protein stability index (variant: A18E ) is 1.71

# protein stability index (variant: G5Y ) is 1.71

# protein stability index (variant: Y7E ) is 3.37

# protein stability index (variant: Y6K ) is 2.66

Origin of measurements: the supplement of paper PMC10567573
